List of EC50 values.
# study_target: Heat shock protein HSP90 (Homo sapiens, UniProt P07900+P08238)
# details: mcf7
# Description: Binding affinity to Hsp90 in MCF7 cell lysate

{"columns": ["smiles_data", "EC50 [µM]"],
 "data": [
  ["CC(=O)OCCCCn1c(Sc2nc3cccc(Cl)c3s2)nc2c(N)ncnc21", 0.14],
  ["CC(=O)OCCCn1c(Sc2nc3cccc(Cl)c3s2)nc2c(N)ncnc21", 0.16],
  ["Nc1ncnc2c1nc(Sc1nc3cccc(Cl)c3s1)n2CCN1CCOCC1", 0.15],
  ["Nc1ncnc2c1nc(Sc1nc3cccc(Cl)c3s1)n2CCNC1CC1", 0.13],
  ["CCCCn1c(Sc2nc3cccc(OC)c3s2)nc2c(N)ncnc21", 0.2],
  ["N#CCCCCn1c(Sc2nc3cccc(Cl)c3s2)nc2c(N)ncnc21", 0.1]
]}
